Please go through the items and note down their melting point.
Please respond with the number in °C and leave the unit unwritten.

Q: Which value of melting point has been reported for "CCCCCCCCCCCCCCCCCCCCCCO" in the records?
Result: 72.5

Q: I am curious: what melting point value has been reported for "N#CCc1cccc([N+](=O)[O-])c1" ?
Result: 63

Q: // melting point lookup, key: CCC(Cc1c(I)cc(I)c(O)c1I)C(=O)O (stereo not drawn)
Result: 147

Q: Report melting point for "CCCCCCCCCCCCCCCCCC(=O)CCCCCCCCCCCCCCCCC" please.
Result: 89

Q: Could you share which melting point value was measured for "OCc1ccc(Cl)c(Cl)c1" ?
Result: 36

Q: Sample "OC(CCCN1CCCCC1)(c1ccccc1)c1ccccc1" — what was its melting point?
Result: 104

Q: Suppose we examine the molecule C[Si]1(c2ccccc2)O[Si](C)(c2ccccc2)O[Si](C)(c2ccccc2)O1 (stereo not drawn) ; what melting point value has been reported?
Result: 100

Q: Look up melting point for this molecule: "NC(=O)c1ccc(C(F)(F)F)cc1"
Result: 185

Q: What value of melting point has been recorded for this entry: "O=C1CNC(=S)N1"
Result: 230

Q: Item under review: "O=C(Cl)c1cccc(C(=O)Cl)c1" . Reported melting point?
Result: 43.5

Q: Which melting point value is on record for "CCCCCCCCCCCCC1CCCCC1" ?
Result: 12.5

Q: Entry under review: "CCNc1nc(Cl)nc(NC(C)C)n1" . Reported melting point?
Result: 173

Q: For the molecule shown here, "CCOc1cc(Oc2ccc(C(F)(F)F)cc2Cl)ccc1[N+](=O)[O-]" , give the reported melting point.
Result: 84

Q: Find the recorded melting point belonging to "FC(F)(F)C(F)(F)C(F)(F)C(F)(F)C(F)(F)C(F)(F)I" and report it.
Result: -46

Q: Item under review: "COC(=O)Nc1cccc(OC(=O)Nc2cccc(C)c2)c1" . Reported melting point?
Result: 143

Q: Fill in the blank: the reported melting point of "FC(F)Br" is ____.
Result: -145

Q: // query melting point value for entry "OCc1ccc2ccccc2c1"
Result: 81.3

Q: Query: melting point; subject: "COc1cccc(C(=O)NN)c1"
Result: 94

Q: Which melting point value belongs to "O=C(O)C=Cc1cccc(C(F)(F)F)c1" ?
Result: 136

Q: Quick one: melting point for "CC(=O)Nc1ccc2c(c1)Cc1cc([N+](=O)[O-])ccc1-2" ?
Result: 262

Q: Form field: reported melting point of "NS(=O)(=O)c1ccc(S(=O)(=O)CCCO)cc1"
Result: 150

Q: Give its melting point value. Item: "COc1ccc(C[C@H](N)C(=O)N[C@H]2[C@@H](O)[C@H](n3cnc4c(N(C)C)ncnc43)O[C@@H]2CO)cc1"
Result: 176

Q: Quick one: melting point of "CCCCCCCCCCCCCCCCBr" ?
Result: 18

Q: Which melting point value is on record for "CCCCOC(=O)CC" ?
Result: -89

Q: Need melting point, item "CCOC(=O)COc1cc(Cl)c(Cl)cc1Cl"
Result: 64

Q: Which melting point is listed for "Nc1c(F)c(F)cc(F)c1F" ?
Result: 31.5

Q: Which melting point is reported for this molecule? "O=[N+]([O-])c1cc(S(=O)(=O)c2ccc(F)c([N+](=O)[O-])c2)ccc1F"
Result: 194

Q: Entry under review: "Nc1c(C(=O)O)ccc2c1C(=O)c1ccccc1C2=O" . Reported melting point?
Result: 296

Q: Can you share its melting point? I mean this molecule: CC(C)C12C=CC(C)(CC1)OO2 (stereo not drawn)
Result: 3.3

Q: Item under review: "CC[Si](Cl)(Cl)CC" . Reported melting point?
Result: -96.5

Q: // lookup melting point for "c1ccc([C@@H]2CCCNC2)cc1"
Result: 14.5

Q: Value lookup for melting point; key = "O=C(O)Cc1c[nH]c2ccccc12"
Result: 168

Q: Fill blank: measured melting point of the molecule "Nc1nc(N)nc(-c2cc(Cl)ccc2Cl)n1" is ____.
Result: 268

Q: Fill blank: measured melting point of the molecule "O=[N+]([O-])c1cccc2cccnc12" is ____.
Result: 90

Q: What does the data say about its melting point? Entry: "CC(C)CCCC(C)(C)C"
Result: -105

Q: Which melting point value is on record for "CCOc1ccc(Br)cc1" ?
Result: 4

Q: Record request: melting point value, item "CCN(CC)CCSC(=O)N(c1ccccc1)c1ccccc1"
Result: 48.5

Q: Need melting point, item "O=C(O)Cc1ccc([N+](=O)[O-])cc1"
Result: 154

Q: Tell me the measured melting point of Cc1ccccc1N1C(=O)c2cc(S(N)(=O)=O)c(Cl)cc2NC1C (stereo not drawn) , please.
Result: 256

Q: Look up melting point: "Nc1ccc(F)c([N+](=O)[O-])c1"
Result: 97.5

Q: Consider the molecule shown here: COC(=O)C(C)N(C(=O)Cc1ccccc1)c1c(C)cccc1C (stereo not drawn) What is its recorded melting point?
Result: 79

Q: Query (molecule): "O=S(=O)(Cl)c1ccc(Br)cc1" ; field requested: melting point
Result: 76

Q: Look up melting point for this molecule: "Clc1cc(Cl)c(-c2c(Cl)cc(Cl)c(Cl)c2Cl)cc1Cl"
Result: 83

Q: For the molecule shown here, "O=Cc1cccc2c1CCOC2=O" , give the reported melting point.
Result: 140

Q: Would you mind telling me what melting point value was observed for "CCCCCCC(C)CCCCCC" ?
Result: -37.2

Q: State the recorded melting point for this entry: "CCCCCCCCCCC/C=C\CCCCC(=O)O"
Result: 29.8

Q: Which melting point value is on record for "CNC(=O)CSP(=O)(OC)OC" ?
Result: -28

Q: Consider the molecule shown here: "Nc1ccc([N+](=O)[O-])cc1N" What is its recorded melting point?
Result: 200

Q: Using the record for "Cc1ccc(S)cc1" , report its melting point.
Result: 43

Q: Data request, read-out melting point, for "CCOc1ccc(C(=O)O)cc1"
Result: 198

Q: Quick check: melting point of "O=CNc1ccccc1" ?
Result: 46

Q: Endpoint output: melting point of "CCCCCCCCCCCCCCCC(=O)OC/C=C(C)/C=C/C=C(C)/C=C/C1=C(C)CCCC1(C)C" . Value?
Result: 28.5

Q: Recorded melting point for "CCc1ccc(Cc2ccccc2)cc1" , please?
Result: -24

Q: Fill in: melting point of "O=C1c2ccccc2C(=O)c2c(NCCO)ccc(NCCO)c21" is ___
Result: 248

Q: Quick check: melting point of "C=CCCC(=O)O" ?
Result: -22.5

Q: Field request: melting point | item: "Cc1c(NC(=O)c2cccnc2)c(=O)n(-c2ccccc2)n1C"
Result: 253

Q: Please report the recorded melting point for "C[C@H]1CC=CCC1" .
Result: -116

Q: Look up melting point: "NNC(=O)c1ccc(N)cc1"
Result: 226
